These measurements were taken from PubChem BioAssay.

# assay.remarks: compound binding in COS7 lysate, probe aLAP1, primary screen, cell lysate, small-molecule microarray (AID 1124);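 further: lysate comes from COS7 cells expressing LAP1 and is applied at 0.3 µg/mL; score merges spot fluorescence near 667 nm with signal-to-noise over triplicate slides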
# conditions: probe aLAP1, fluorescence, higher = more signal
readout: composite z-score
Provide a numeric answer; units are not to be included.

Some molecules with recorded composite z-score:
• O=C1C[C@H](c2ccccc2)[C@H](c2ccc(Br)cc2)O1 = -1.07
• CC(CCN1CCc2nc(-c3ccccc3)c(-c3ccccc3)cc2C1)=NOC(C)CN1CCCc2nc(C)c(C)cc21 (stereo unspecified) = 0.506
• O=C1[C@H]2[C@H]3[C@H](O)[C@H](O)CC(=NO[C@@H]4O[C@H](CO)[C@@H](O)[C@H](O)[C@H]4O)[C@H]3CC[C@H]2C(=O)N1C[C@@H]1CCCO1 = 0.041
• COC(=O)CC=C[C@@H](C)[C@@H](C=NOC[C@@H](O)COCc1ccco1)OC = 0.0649
• CCN1C(=O)[C@H]2[C@H]3[C@H](O)[C@H](O)CC(=NO[C@H](C)c4cn([C@H](CO)Cc5ccccc5)nn4)[C@@H]3CC[C@H]2C1=O = 1.39

Pending molecule:
Q: Annotate the molecule `CC(C)=NOC[C@@H](O)[C@H]1O[C@@H]2OC(C)(C)O[C@@H]2[C@H]1O` with its measured composite z-score.
Result: 0.116
